# system.name: T1, human CD28, full-length, expressed on transfected Expi293 cells (human, UniProt P10747 19-220)
# T1 construct: whole, on cells
# test.method.notes: flow cytometry, 100 nM, Expi293 cells with human CD28
reported.endpoint: MFI ratio to WT (ΔWT) (fold)
Quick reminder: number only, in fold, skip the unit.

q: Could you tell me which MFI ratio to WT (ΔWT) is on file for variant ICOSL IgV-Fc fusion N52R/N57Y/Q100S (Fc fusion) DTQEKEVRAMVGSDVELSCACPEGSRFDLNDVYVYWQTSESKTVVTYHIPQRSSLEYVDSRYRNRALMSPAGMLRGDFSLRLFNVTPQDEQKFHCLVLSSSLGFQEVLSVEVTLHVAANFSVGSGGGGSEPKSSDKTHTCPPCPAPEAEGAPSVFLFPPKPKDTLMISRTPEVTCVVVDVSHEDPEVKFNWYVDGVEVHNAKTKPREEQYNSTYRVVSVLTVLHQDWLNGKEYKCKVSNKALPAPIEKTISKAKGQPREPQVYTLPPSREEMTKNQVSLTCLVKGFYPSDIAVEWESNGQPENNYKTTPPVLDSDGSFFLYSKLTVDKSRWQQGNVFSCSVMHEALHNHYTQKSLSLSPG ?
a: 6
